# measured.on: Caspase-3 (Homo sapiens)
# Sequence (P42574 29-175 limits assumed): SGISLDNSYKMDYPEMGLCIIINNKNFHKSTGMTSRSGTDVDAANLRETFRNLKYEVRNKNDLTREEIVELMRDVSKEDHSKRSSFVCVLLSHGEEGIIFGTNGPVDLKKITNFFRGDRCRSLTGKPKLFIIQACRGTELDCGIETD
# Sequence (P42574 176-277 limits assumed): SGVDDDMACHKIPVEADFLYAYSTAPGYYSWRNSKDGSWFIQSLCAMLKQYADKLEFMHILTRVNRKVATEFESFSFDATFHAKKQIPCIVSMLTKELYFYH
# measurement.description: Inhibition of staurosporine induced activation of caspase 3 activation in human Hela cells assessed as hydrolysis of Z-DEVD-R110 substrate by microplate fluorescence assay
result.type: EC50 (nM)

Ask | Recall the recorded EC50 for "O=C1C(=O)N(Cc2cn(CCF)nn2)c2ccc(S(=O)(=O)N3CCC[C@H]3COc3ccc(F)cc3F)cc21" with Caspase-3 (Homo sapiens) and state it.
Reply | 680

P = CN1C(=O)C(=O)c2cc(S(=O)(=O)N3CCC[C@H]3COc3ccccc3)ccc21
Q = O=C1C(=O)N(Cc2cn(CCF)nn2)c2ccc(S(=O)(=O)N3CCC[C@H]3COc3ccccc3)cc21
Ask | Returns the identifier with the smallest measured EC50 among P and Q . Write down the label attached to your selection.
Reply | Q
(Q: 930 nM, P: 7670 nM)
